Source of measurements: patent US7138421B2

Would you mind telling me the reported clearance of each entry?
assay: Pharmacokinetics in rats after intravenous and peroral administration; type: in vivo; settings: rat, serum, intravenous, read-out: Systemic Serum Clearance CL
Answers are plain numbers, in mL/min/kg.

smiles-record: CC1(C)C(=O)N(c2ccc(C#N)c(C(F)(F)F)c2)C(=S)N1CCCCCCCCN1CCCC1
clearance (mL/min/kg): 76

Now look at this one.
Query: # clearance lookup, item CC1(C)C(=O)N(c2ccc(C#N)c(C(F)(F)F)c2)C(=S)N1CCCCCCCCN1CCC[C@H]1CO
Response: 20

###

biological target: androgen receptor (Homo sapiens, UniProt P10275, T878A); construct: Destabilization of AR in LNCaP Cells by Test Substances; endogenous in cells; host or cells: LNCaP (human prostate cell line); format: cell-based; conditions: LNCaP cells, 48 h, 1 μM, % of DMSO control
Sequence (P10275 whole entry T878A): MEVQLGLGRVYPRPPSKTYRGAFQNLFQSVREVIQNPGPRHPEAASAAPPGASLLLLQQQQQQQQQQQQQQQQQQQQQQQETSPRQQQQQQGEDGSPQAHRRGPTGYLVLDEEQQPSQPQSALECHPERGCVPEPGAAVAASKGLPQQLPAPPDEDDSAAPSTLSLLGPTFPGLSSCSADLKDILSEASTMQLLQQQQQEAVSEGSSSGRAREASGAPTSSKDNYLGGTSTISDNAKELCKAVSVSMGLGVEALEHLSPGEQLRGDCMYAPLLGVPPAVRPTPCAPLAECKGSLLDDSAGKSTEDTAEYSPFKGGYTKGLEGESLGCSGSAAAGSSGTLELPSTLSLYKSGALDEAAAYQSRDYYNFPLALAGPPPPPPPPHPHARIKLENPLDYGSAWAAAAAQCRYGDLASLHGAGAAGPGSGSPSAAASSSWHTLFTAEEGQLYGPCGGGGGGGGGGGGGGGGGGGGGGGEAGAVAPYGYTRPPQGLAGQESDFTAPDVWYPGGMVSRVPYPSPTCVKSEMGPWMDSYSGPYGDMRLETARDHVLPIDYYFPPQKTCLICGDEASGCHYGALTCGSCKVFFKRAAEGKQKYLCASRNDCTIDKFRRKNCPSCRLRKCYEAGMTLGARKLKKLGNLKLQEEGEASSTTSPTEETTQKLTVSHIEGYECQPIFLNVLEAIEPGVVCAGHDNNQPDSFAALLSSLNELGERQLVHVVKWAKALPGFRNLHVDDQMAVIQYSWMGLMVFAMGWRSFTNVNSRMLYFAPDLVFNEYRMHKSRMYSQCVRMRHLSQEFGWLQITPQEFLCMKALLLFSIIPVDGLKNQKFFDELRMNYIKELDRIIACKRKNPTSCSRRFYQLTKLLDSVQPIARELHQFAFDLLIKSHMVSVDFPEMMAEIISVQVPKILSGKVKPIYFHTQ
recorded-metric: AR Content at 1 μM (%)
Give bare numbers, in %.

Here is how some molecules turned out for AR Content at 1 μM.
molecule: CC1(C)C[C@@H](CN2CCCC2)N(CCCCCCCN2CCN(c3ccc(C#N)c(C(F)(F)F)c3)C2=S)C1=O [Example 56]
tested-on: androgen receptor (Homo sapiens, UniProt P10275, T878A)
measurement-unit: %
AR Content at 1 μM: 24
//
molecule: CC1(C)C(=O)N(c2ccc(C#N)c(C(F)(F)F)c2)C(=S)N1CCCCCCN1CC[C@@H](C(N)=O)C1 [Example 52]
tested-on: androgen receptor (Homo sapiens, UniProt P10275, T878A)
measurement-unit: %
AR Content at 1 μM: 74

For every listed record, write down its AR Content at 1 μM.
1. CC(C)(O)[C@@H]1CCCN1CCCCCCCCN1C(=S)N(c2ccc(C#N)c(C(F)(F)F)c2)C(=O)C1(C)C [Example 40]
2. C[C@@H]1CC[C@H](C)N1CCCCCCCCN1C(=S)N(c2ccc(C#N)c(C(F)(F)F)c2)C(=O)C1(C)C [Example 37]
3. CC1(C)C(=O)N(c2ccc(C#N)c(C(F)(F)F)c2)C(=S)N1CCO [Example 71 USRe 35956, reference compound]
4. CC1(C)C(=O)N(c2ccc(C#N)c(C(F)(F)F)c2)C(=S)N1CCCCCCCN1CCC[C@H]1CO [Example 9]

Response:
1: 40; 2: 57; 3: 164; 4: 63

###

Tested on: LNCaP cells
Assay: Inhibition of the proliferation of LNCaP cells (crystal violet assay)
Assay type: cell-based, human
Conditions: Homo sapiens, LNCaP; 1 μM test substance, compared to cell growth in the presence of 0.1 nmol of R1881; read-out: % Inhibition at 1 μM
Method: For the proliferation assay, 6000 LNCaP cells/well (Horoszewicz et al. Cancer Res. 1983, 43, 1809–1817) in a microtiter plate (96-well) in 50 μl of RPMI1640 medium are grown with 5% CCS and cultivated as in Model 1. After 24 hours, the cells receive 50 μl of 2×-concentrated test substance, diluted in culture medium. […] After 7 to 8 days, the proliferation rate of the cells is determined by means of crystal violet assay (Gillies et al. Anal. Biochem. 1986, 159, 109–113). […]
recorded-metric: inhibition at 1 µM (%)
Answers are plain numbers, in %.

Here is how some molecules turned out for inhibition at 1 µM.
molecule: CC1(C)C(=O)N(c2ccc(C#N)c(C(F)(F)F)c2)C(=S)N1CCCCCCN1CC[C@@H](C(N)=O)C1
value-observed: 100

molecule: CC1(C)C(=O)N(c2ccc(C#N)c(C(F)(F)F)c2)C(=S)N1CCO [Example 71 USRe 35956, reference compound]
value-observed: 9

molecule: CC1(C)C(=O)N(c2ccc(C#N)c(C(F)(F)F)c2)C(=S)N1CCCCCCCN1CC[C@@H](O)C1
value-observed: 95

molecule: CC1CCCN1CCCCCCCCN1C(=S)N(c2ccc(C#N)c(C(F)(F)F)c2)C(=O)C1(C)C (centres unmarked)
value-observed: 96

Now look at this one.
Query: # inhibition at 1 µM lookup, item C[C@@H]1CC[C@H](C)N1CCCCCCCCN1C(=S)N(c2ccc(C#N)c(C(F)(F)F)c2)C(=O)C1(C)C
Response: 99
